# target-of-assay: recombinant human ERα (Homo sapiens, UniProt P03372)
# Construct: purchased PanVera Corporation (Madison, Wis.); host or cells: baculovirus-mediated expression system
# Sequence (P03372 whole entry): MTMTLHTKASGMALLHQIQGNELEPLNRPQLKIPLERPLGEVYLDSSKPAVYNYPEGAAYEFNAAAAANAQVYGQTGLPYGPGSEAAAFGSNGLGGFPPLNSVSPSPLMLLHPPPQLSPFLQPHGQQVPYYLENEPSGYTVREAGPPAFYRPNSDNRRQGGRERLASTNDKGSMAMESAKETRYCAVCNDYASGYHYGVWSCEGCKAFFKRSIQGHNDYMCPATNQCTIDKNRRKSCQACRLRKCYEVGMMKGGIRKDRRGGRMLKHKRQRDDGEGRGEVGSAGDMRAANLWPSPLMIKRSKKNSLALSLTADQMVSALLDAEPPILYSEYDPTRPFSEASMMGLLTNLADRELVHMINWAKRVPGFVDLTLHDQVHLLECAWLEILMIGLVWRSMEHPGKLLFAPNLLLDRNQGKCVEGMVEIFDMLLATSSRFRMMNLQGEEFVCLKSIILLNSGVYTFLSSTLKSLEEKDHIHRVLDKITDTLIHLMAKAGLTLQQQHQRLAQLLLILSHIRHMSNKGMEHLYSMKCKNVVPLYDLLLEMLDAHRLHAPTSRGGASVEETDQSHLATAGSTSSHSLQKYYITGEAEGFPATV
# method-notes: ERα binding assay: competition of [3H]E2 binding by competing estrogens
# conditions: read-out: ERα IC50
# Source text: The recombinant human ERα and ERβ proteins and bovine serum albumin (BSA) were obtained from PanVera Corporation (Madison, Wis.). According to the supplier, the recombinant human ERα and ERβ were produced in a baculovirus-mediated expression system, and they were soluble and functionally active, with post-translational modifications similar to those found in mammalian cells. See Reid et al., Human estrogen receptor-α: Regulation by synthesis, modification and degradation, Cell. Mol. Life. […]
pIC50: −log10 of the molar value.
The entries below come with measured pIC50 values attached.
quantity: pIC50

INSERT INTO assay_data (compound, quantity, qualifier_operator, value_observed) VALUES
  ('O=c1c(O)c(-c2cc(O)c(O)c(O)c2)oc2cc(O)cc(O)c12 [Myricetin, reference compound]', 'pIC50', '<', 6.00),
  ('C[C@]12C[C@H](O)[C@@H]3c4ccc(O)cc4CC[C@H]3[C@@H]1CCC2=O [11β-OH-E1, 11β-Hydroxyestrone]', 'pIC50', '<', 6.00),
  ('CC12CCC3c4ccc(O)cc4CCC3C1CC(=O)C2=O (stereo not drawn) [16-Keto-E1, 16-Ketoestrone]', 'pIC50', '=', 6.20),
  ('CC12CCC3c4ccc(O)c(N)c4CCC3C1CCC2=O (stereo not drawn) [4-NH2-E1, 4-Aminoestrone]', 'pIC50', '=', 6.45),
  ('CCOc1cc2c(cc1O)CCC1C2CCC2(C)C(O)CCC12 (stereo not drawn) [2-Ethoxy-E2, 2-Ethoxyestradiol]', 'pIC50', '<', 6.00),
  ('CC[C@H](c1ccc(O)cc1)[C@@H](CC)c1ccc(O)cc1 [Hexestrol, reference compound]', 'pIC50', '=', 7.44),
  ('COc1c(O)ccc2c1CC[C@@H]1[C@@H]2CC[C@]2(C)[C@@H](O)[C@H](O)C[C@@H]12', 'pIC50', '=', 5.90),
  ('C[C@]12CC[C@@H]3c4cc(N)c(O)cc4CC[C@H]3[C@@H]1CCC2=O [2-NH2-E1, 2-Aminoestrone]', 'pIC50', '=', 6.40),
  ('C[C@]12CC[C@@H]3c4ccc(O)cc4CC[C@H]3[C@@H]1[C@@H](O)[C@@H](O)[C@@H]2O [15α-OH-E3, 15α-Hydroxyestriol (Estetrol)]', 'pIC50', '=', 6.55),
  ('COc1cc2c(cc1OC)C1CCC3(C)C(O)CCC3C1CC2 (stereo not drawn) [2,3-diMeO-E2, 17β-Estradiol 2,3-dimethyl ether]', 'pIC50', '<', 6.00),
  ('C[C@@]12C=CC[C@H]1[C@@H]1CCc3cc(O)ccc3[C@H]1CC2', 'pIC50', '=', 7.50),
  ('C[C@]12C[C@@H](O)[C@@H]3c4ccc(O)cc4CC[C@H]3[C@@H]1CCC2=O [11α-OH-E1, 11α-Hydroxyestrone]', 'pIC50', '<', 6.00),
  ('CC12CCC3c4cc(Br)c(O)cc4CCC3C1CCC2O (stereo not drawn) [2-Br-E2, 2-Bromoestradiol]', 'pIC50', '=', 6.55),
  ('CC12CC(O)C3c4ccc(O)cc4CCC3C1CCC2O (stereo not drawn) [11β-OH-E2, 11β-Hydroxyestradiol]', 'pIC50', '<', 6.00),
  ('Cc1cc(O)cc2c1[C@H]1CC[C@]3(C)[C@@H](O)CC[C@H]3[C@@H]1CC2 [1-Methyl-E2, 1-Methylestradiol]', 'pIC50', '=', 7.10);
